The reported measurements were obtained from patent US10844002B2.

# assayExplanation: Characterization of LNP formulations: Z average particle diameter and polydispersity index
# Type: physicochemical
# details: LNP formulation, Z average particle diameter
As shown below, each of these molecules has a reported Zav (nm) value.
Give a bare numeral; the unit nm is implied.

Use these answered entries as a reference point.
- molecule: "CCCCC/C=C\\C/C=C\\CCCCCCCCOc1ccc(COC(=O)CCCN(C)C)c(OCCCCCCCC/C=C\\C/C=C\\CCCCC)c1 [Example 19]"
  Zav (nm): 133.2
- molecule: "CCCCCCCCCC(=O)OCCCCCCCCOc1ccc(OCCCCCCCCOC(=O)CCCCCCCCC)c(COC(=O)C2CCN(C(C)C)CC2)c1 [Example 9]"
  Zav (nm): 182.6
- molecule: "CCCCC/C=C\\C/C=C\\CCCCCCCCOc1ccc(OCCCCCCCC/C=C\\C/C=C\\CCCCC)c(COC(=O)CCCN(C)C)c1 [Example 1]"
  Zav (nm): 135.3
- molecule: "CCCCC/C=C\\C/C=C\\CCCCCCCCOc1cc(COC(=O)OCCCCN(C)C)c(OCCCCCCCC/C=C\\C/C=C\\CCCCC)cc1C [Example 15]"
  Zav (nm): 138.8
- molecule: "CCCCCCCCCC(=O)OCCCCCCCCOc1ccc(OCCCCCCCCOC(=O)CCCCCCCCC)c(COC(=O)CCCN(C)C)c1 [Example 7]"
  Zav (nm): 100.7
- molecule: "CCCCCCCCCC(=O)OCCCCCCCCOc1ccc(OCCCCCCCCOC(=O)CCCCCCCCC)c(COC(=O)OCCCN(C)C)c1 [Example 12]"
  Zav (nm): 97.3
- molecule: "CCCCC/C=C\\C/C=C\\CCCCCCCCOc1cc(COC(=O)OCCCN(C)C)c(OCCCCCCCC/C=C\\C/C=C\\CCCCC)cc1C [Example 14]"
  Zav (nm): 127.7

Could you now consider this next molecule?
(Q) Retrieve Zav (nm) measured for CCCCC/C=C\C/C=C\CCCCCCCCOc1cc(COC(=O)CCCN(C)C)c(OCCCCCCCC/C=C\C/C=C\CCCCC)cc1C [Example 16] and print it.
(A) 115.5
